# assayDetails: Solubility in biorelevant media (SGF, FASSIF)
# Assay type: physicochemical
# testContext: simulated gastric fluid, thermodynamic from solid; SGF, 37° C., after 1 h
quantity: solubility at 1 h
Write the numeric value and follow it with the unit.

State its solubility at 1 h for this compound: N#Cc1ccnc(N2C(=O)CC[C@H]2C(=O)N(c2cncc(F)c2)[C@H](C(=O)NC2CC(F)(F)C2)c2ccccc2Cl)c1 [Glutaric acid cocrystal of Compound 1] 8 µg/mL

* * *

# assayDetails: Solubility in biorelevant media (SGF, FASSIF)
# Format: physicochemical
# testContext: thermodynamic from solid; FASSIF, 37° C., after 1 h
quantity: solubility at 1 h

State its solubility at 1 h for this compound: "N#Cc1ccnc(N2C(=O)CC[C@H]2C(=O)N(c2cncc(F)c2)[C@H](C(=O)NC2CC(F)(F)C2)c2ccccc2Cl)c1" 13 µg/mL
